meta.source: patent US20240158394A1

# TARGET OR TEST SYSTEM: full-length recombinant human NEK7 (Homo sapiens (Human))
# PROCEDURE DETAILS: NEK7 Enzymatic Assay
# CONDITIONS: casein substrate, [33P]-ATP, 2 hours at room temperature
MEASURED ATTRIBUTE: IC50

| STRUCTURE AS SMILES | TARGET OR TEST SYSTEM | IC50 |
| --- | --- | --- |
| CC(C)(C)c1cc(NC(=O)Nc2ccc(-c3cn(C4CC4)c4ncnc(N)c34)n3ccnc23)n(-c2ccc(Cl)cc2)n1 | full-length recombinant human NEK7 (Homo sapiens (Human)) | 500 to 2000 nM |
| CN1CCC(Oc2ccc(NC(=O)Nc3ccc(-c4cn(C5CC5)c5ncnc(N)c45)c4nonc34)cc2C(F)(F)F)CC1 | full-length recombinant human NEK7 (Homo sapiens (Human)) | < 200 nM |
| CC(C)(F)c1cc(NC(=O)Nc2ccc(-c3cn(C4CC4)c4ncnc(N)c34)n3ccnc23)on1 | full-length recombinant human NEK7 (Homo sapiens (Human)) | < 200 nM |
| CN1CCC(Oc2ccc(NC(=O)Nc3ccc(-c4cn(C5CC5)c5ncnc(N)c45)c4cnoc34)cc2C(F)(F)F)CC1 | full-length recombinant human NEK7 (Homo sapiens (Human)) | < 200 nM |
| CC1(C)Cc2c(-c3cn(C4CCC4)c4ncnc(N)c34)ccc(NC(=O)Nc3cc(C4(C(F)(F)F)CC4)on3)c2O1 | full-length recombinant human NEK7 (Homo sapiens (Human)) | 500 to 2000 nM |
| COCCn1cc(-c2ccc(NC(=O)Nc3cc(C4(C(F)(F)F)CC4)on3)c3nccn23)c2c(N)ncnc21 | full-length recombinant human NEK7 (Homo sapiens (Human)) | < 200 nM |

Next:
For CN1CCN(Cc2ccc(NC(=O)Nc3ccc(-c4cn(C5CCNCC5)c5ncnc(N)c45)n4ccnc34)cc2C(F)(F)F)CC1 on full-length recombinant human NEK7 (Homo sapiens (Human)), measured IC50 was < 200 nM

====

# TARGET OR TEST SYSTEM: full-length recombinant human NEK7 (Homo sapiens (Human), UniProt Q8TDX7)
# Sequence (Q8TDX7 whole entry): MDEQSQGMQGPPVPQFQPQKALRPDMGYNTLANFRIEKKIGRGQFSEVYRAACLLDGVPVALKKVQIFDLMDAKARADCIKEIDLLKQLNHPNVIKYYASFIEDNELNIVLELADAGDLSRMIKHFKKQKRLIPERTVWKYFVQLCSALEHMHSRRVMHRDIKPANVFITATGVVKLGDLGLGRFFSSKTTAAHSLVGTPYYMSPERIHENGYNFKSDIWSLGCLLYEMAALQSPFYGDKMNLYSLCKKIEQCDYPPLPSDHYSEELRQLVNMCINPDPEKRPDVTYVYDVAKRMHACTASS
# PROCEDURE DETAILS: NEK7 Enzymatic Assay
# CONDITIONS: casein substrate, [33P]-ATP, 2 hours at room temperature
pIC50: −log10 of the molar value.
MEASURED ATTRIBUTE: pIC50

| STRUCTURE AS SMILES | pIC50 |
| --- | --- |
| Nc1ncnc2c1c(-c1ccc(NC(=O)Nc3cc(C4(C(F)(F)F)CC4)no3)c3nccn13)cn2C1CC1 | > 6.70 |
| CN1CCN(Cc2ccc(NC(=O)Nc3ccc(-c4cn(CC(C)(C)O)c5ncnc(N)c45)n4ccnc34)cc2C(F)(F)F)CC1 | > 6.70 |
| CN1CCN(Cc2ccc(NC(=O)Nc3ccc(-c4cn(C5CC5)c5ncnc(N)c45)c4ccoc34)cc2C(F)(F)F)CC1 | 6.30 to 6.70 |
| Nc1ncnc2c1c(-c1ccc(NC(=O)Nc3cc(C4(C(F)(F)F)CC4)no3)c3occc13)cn2C1CC1 | < 5.70 |
| CN1CCC(n2cc(-c3ccc(NC(=O)Nc4ccc(CN5CCN(C)CC5)c(C(F)(F)F)c4)c4nccn34)c3c(N)ncnc32)CC1 | 6.30 to 6.70 |
| CCN1CCC(Oc2ccc(NC(=O)Nc3ccc(-c4cn(C5CC5)c5ncnc(N)c45)c4cnoc34)cc2C(F)(F)F)CC1 | 6.30 to 6.70 |

Next:
For CN1CCN(Cc2cc(NC(=O)Nc3ccc(-c4cn(C5CC5)c5ncnc(N)c45)n4ccnc34)cc(C(F)(F)F)c2)CC1 on full-length recombinant human NEK7 (Homo sapiens (Human), UniProt Q8TDX7), measured pIC50 was > 6.70

====

# TARGET OR TEST SYSTEM: full-length recombinant human NEK7 (Homo sapiens (Human))
# PROCEDURE DETAILS: NEK7 Enzymatic Assay
# CONDITIONS: casein substrate, [33P]-ATP, 2 hours at room temperature
pIC50: −log10 of the molar value.
MEASURED ATTRIBUTE: pIC50

Solved entries:
| MOLECULE | pIC50 |
| --- | --- |
| Cc1cc(NC(=O)Nc2ccc(-c3cn(C4CC4)c4ncnc(N)c34)n3ccnc23)on1 [Example I-14] | < 5.70 |
| CN1CCN(Cc2ccc(NC(=O)Nc3ncc(-c4cn(C5CC5)c5ncnc(N)c45)n4ccnc34)cc2C(F)(F)F)CC1 [Example I-51] | < 5.70 |
| CN1CCC(Oc2ccc(NC(=O)Nc3ccc(-c4cn(C5CC5)c5ncnc(N)c45)c4c3OCC4)cc2C(F)(F)F)CC1 [Example I-55] | 6.30 to 6.70 |

For CN1CCN(Cc2ccc(NC(=O)Nc3ccc(-c4cn(C)c5ncnc(N)c45)n4ccnc34)cc2C(F)(F)F)CC1 [Example I-127] on full-length recombinant human NEK7 (Homo sapiens (Human)), measured pIC50 was > 6.70

====

# TARGET OR TEST SYSTEM: full-length recombinant human NEK7 (Homo sapiens (Human), UniProt Q8TDX7)
# PROCEDURE DETAILS: NEK7 Enzymatic Assay
# CONDITIONS: casein substrate, [33P]-ATP, 2 hours at room temperature
# Source text: […]
pIC50: −log10 of the molar value.
MEASURED ATTRIBUTE: pIC50

Solved entries:
| COMPOUND | MEASURED ATTRIBUTE | MEASURED VALUE |
| --- | --- | --- |
| Nc1ncnc2c1c(-c1ccc(NC(=O)Nc3cc(C4(C(F)(F)F)CC4)on3)c3nonc13)cn2C1CC1 | pIC50 | > 6.70 |
| CN1CCC(Oc2ccc(NC(=O)Nc3ccc(-c4cn(C5CC5)c5ncnc(N)c45)c4ccoc34)cc2C(F)(F)F)CC1 | pIC50 | 5.70 to 6.30 |
| CN1CCC(n2cc(-c3ccc(NC(=O)Nc4cc(C5(C(F)(F)F)CC5)on4)c4nccn34)c3c(N)ncnc32)CC1 | pIC50 | 6.30 to 6.70 |
| CN1CCN(Cc2ccc(NC(=O)Nc3ccc(-c4nn(C5CC5)c5ncnc(N)c45)n4ccnc34)cc2C(F)(F)F)CC1 | pIC50 | > 6.70 |
| CC(C)(C)c1cc(NC(=O)Nc2ccc(-c3cn(C4CC4)c4ncnc(N)c34)c3cccnc23)on1 | pIC50 | < 5.70 |
| CN1CCN(Cc2ccc(NC(=O)Nc3ccc(-c4cn(C5CC5)c5ncnc(N)c45)c4ccncc34)cc2C(F)(F)F)CC1 | pIC50 | > 6.70 |
| CC(C)c1cc(NC(=O)Nc2ccc(-c3cn(C4CC4)c4ncnc(N)c34)n3ccnc23)on1 | pIC50 | > 6.70 |
| Nc1ncnc2c1c(-c1ccc(NC(=O)Nc3cc(C4(C(F)(F)F)CC4)on3)c3ncccc13)cn2C1CC1 | pIC50 | < 5.70 |

Entry under test: Nc1ncnc2c1c(-c1ccc(NC(=O)Nc3cc(C4(C(F)(F)F)CC4)on3)c3nc(C(F)(F)F)cn13)cn2C1CC1 . Its pIC50 was < 5.70

Entry under test: Nc1ncnc2c1c(-c1ccc(NC(=O)Nc3cc(C4(C(F)(F)F)CC4)on3)c3nccn13)cn2CCO . Its pIC50 was > 6.70

Entry under test: COCCN1CCN(Cc2ccc(NC(=O)Nc3ccc(-c4cn(C5CC5)c5ncnc(N)c45)n4ccnc34)cc2C(F)(F)F)CC1 . Its pIC50 was > 6.70

====

# TARGET OR TEST SYSTEM: full-length recombinant human NEK7 (Homo sapiens (Human), UniProt Q8TDX7)
# PROCEDURE DETAILS: NEK7 Enzymatic Assay
# CONDITIONS: casein substrate, [33P]-ATP, 2 hours at room temperature
pIC50: −log10 of the molar value.
The following compounds are shown together with reported pIC50 values.

Solved entries:
| COMPOUND | MEASURED VALUE |
| --- | --- |
| Nc1ncnc2c1c(-c1ccc(NC(=O)Nc3cc(C4(C(F)(F)F)CC4)on3)c3oncc13)cn2C1CC1 | > 6.70 |
| CN1CCN(Cc2ccc(NC(=O)Nc3ccc(-c4cn(C5CC5)c5ncnc(N)c45)c4c3OCC4)cc2C(F)(F)F)CC1 | > 6.70 |
| Nc1ncnc2c1c(-c1ccc(NC(=O)Nc3cc(C4(C(F)(F)F)CC4)on3)c3ocnc13)cn2C1CC1 | 5.70 to 6.30 |

Entry under test: Nc1ncnc2c1c(-c1ccc(NC(=O)Nc3cc(C4(C(F)(F)F)CC4)no3)c3ccccc13)cn2C1CC1 . Its pIC50 was < 5.70

====

# TARGET OR TEST SYSTEM: full-length recombinant human NEK7 (Homo sapiens (Human), UniProt Q8TDX7)
# PROCEDURE DETAILS: NEK7 Enzymatic Assay
# CONDITIONS: casein substrate, [33P]-ATP, 2 hours at room temperature
pIC50: −log10 of the molar value.
MEASURED ATTRIBUTE: pIC50

Solved entries:
| COMPOUND | pIC50 |
| --- | --- |
| CC(C)(C)c1cc(NC(=O)Nc2ccc(-c3cn(C4CC4)c4ncnc(N)c34)c3ccoc23)on1 [Example I-63] | 5.70 to 6.30 |
| CC(C)n1cc(-c2ccc(NC(=O)Nc3cc(C4(C(F)(F)F)CC4)on3)c3nccn23)c2c(N)ncnc21 [Example I-83] | > 6.70 |

Entry under test: Cc1ccc(-n2nc(C(C)(C)C)cc2NC(=O)Nc2ccc(-c3cn(C4CC4)c4ncnc(N)c34)n3ccnc23)cc1 [Example I-12] . Its pIC50 was 6.30 to 6.70

Entry under test: CC1Cc2c(-c3cn(C4CC4)c4ncnc(N)c34)ccc(NC(=O)Nc3ccc(CN4CCN(C)CC4)c(C(F)(F)F)c3)c2O1 (stereo not shown) [Example I-57] . Its pIC50 was 5.70 to 6.30

Entry under test: Nc1ncnc2c1c(-c1ccc(NC(=O)Nc3cc(C4(C(F)(F)F)CC4)no3)c3ncccc13)cn2C1CC1 [Example I-3] . Its pIC50 was < 5.70

Entry under test: CC1(C)Cc2c(-c3cn(C4CC4)c4ncnc(N)c34)ccc(NC(=O)Nc3cc(C4(C(F)(F)F)CC4)on3)c2O1 [Example I-59] . Its pIC50 was 6.30 to 6.70

Entry under test: CN1CCN(Cc2ccc(NC(=O)Nc3ccc(-c4cn(C5CC5)c5ncnc(N)c45)c4ncoc34)cc2C(F)(F)F)CC1 [Example I-72] . Its pIC50 was 5.70 to 6.30
